- assayRemarks: Cytotoxicity by MTT reduction reported with the MLR assay (Table II)
- Format: cell-based
- protocolConditions: cytotoxic when toxicity greater than 25%
- Method: Potential cytotoxicity of the test samples was assessed by the measurement of their effect on the reduction of MTT (3-[4,5-Dimethylthiazole-2-yl]-2,5-diphenyltetrazolium bromide) by cultured cells. […] The cytotoxicity was assessed in cultured human PBMC and mouse thymocytes. […] Following overnight incubation at 37° C. to solubilize the formazane crystals, optical density was determined at 570-650 nm in microplate reader. […]
readoutKind: CC50 at 24 h
# output: numeric value plus its unit

Prompt: May I ask what CC50 at 24 h has been recorded for CC(C)[C@]12O[C@H]1[C@@H]1O[C@]13[C@]1(O[C@H]1C[C@H]1C4=C(CC[C@@]13C)C(=O)OC4)[C@@H]2O [Triptolide, triptolide, reference compound] ?
Response: 0.0133 µg/mL
